experiment: Primary qHTS for inhibitors of La Crosse Virus (LACV) - induced cell death in SH-SY5Y cells (AID 1508616); conditions: SH-SY5Y LACV cytopathicity rescue, ATP luminescence, 6 d; series mostly up to 4.29 µM;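 also: top concentration of the series differs between compounds; higher means more rescue of cells from virus-induced death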
Results filed as inconclusive are left out. The source made the active and inactive calls. Calls follow the shape of the dose curve; as a rule, active = well fitted inhibition curve with a large enough effect; inconclusive = small, poorly fitted or top-dose-only effect; inactive = no such curve, though single readings can be large or run the other way. Where a SMILES comes first, the peptide text is derived from it. [ ]: non-standard residue; d: D form. pGlu = O=C1CC[C@@H](C(=O)O)N1
EXPERIMENTAL_ENDPOINT: activity change

CCNC(=O)[C@@H]1CCCN1C(=O)[C@H](CCCN=C(N)N)NC(=O)[C@H](CC(C)C)NC(=O)CNC(=O)[C@H](Cc1ccc(O)cc1)NC(=O)[C@H](CO)NC(=O)[C@H](Cc1c[nH]c2ccccc12)NC(=O)[C@H](Cc1cnc[nH]1)NC(=O)[C@@H]1CCC(=O)N1 ([pGlu]HWSYGLRP-NHEt) = inactive
O=C(OCC1(COC(=O)c2cccnc2)CCCC(COC(=O)c2cccnc2)(COC(=O)c2cccnc2)C1O)c1cccnc1 = inactive
O=C(COCCOCCOCC(=O)Nc1c(I)cc(I)c(C(=O)O)c1I)Nc1c(I)cc(I)c(C(=O)O)c1I = inactive

----------
test system: SKOV3; experiment: Primary qHTS to identify gynecologic anti-cancer compounds using libraries of approved drugs and bioactive compounds (AID 1345084); conditions: Gynecologic cancer cell panel viability, ATPlite luminescence, 48 h; series mostly up to 57.5 µM; also: nearly all actives have a fitted effect of over 55% in size
Inconclusive results are not listed. Active and inactive are the calls of the source. Calls follow the shape of the dose curve; as a rule, active = well fitted cell-killing curve with a large enough effect; inconclusive = small, poorly fitted or top-dose-only effect, or effect the other way; inactive = flat fitted curve, though single readings scatter.
EXPERIMENTAL_ENDPOINT: outcome

// known answers, use as guide
Cc1onc(-c2ccccc2)c1C(=O)Cl = inactive
NCC(=O)O = inactive
CN(CC1(C)CCCO1)S(=O)(=O)c1ccc(Cl)c(S(N)(=O)=O)c1 (configuration not stated) = inactive
c1ccc(C(O[C@H]2CCCN(CCc3ccc4c(c3)OCO4)C2)c2ccccc2)cc1 = inactive
O=C(NN1CCCC1)NS(=O)(=O)c1ccc(Cl)cc1 = inactive
CC(=O)c1cc2ccccc2s1 = inactive
O=C1NC(c2ccccc2)(c2ccccc2)C(=O)N1COP(=O)(O)O = inactive
C=CC[N+]1([C@H]2C[C@H]3[C@@H]4CC[C@H]5C[C@H](OC(C)=O)[C@@H](N6CCCCC6)C[C@]5(C)[C@H]4CC[C@]3(C)[C@H]2OC(=O)CC)CCCCC1 = inactive

Which outcome is listed for "O=C(O)c1[nH]n(-c2ccc(S(=O)(=O)O)cc2)c(=O)c1N=Nc1ccc(S(=O)(=O)O)cc1" ? inactive

Which outcome is listed for "CCOC(=O)C(=O)c1csc(NC=O)n1" ? inactive

Which outcome is listed for "C=CCOc1cc(Cl)ccc1C(=O)NCCN(CC)CC" ? inactive

Which outcome is listed for "O=[N+]([O-])c1cncn1CCN1CCOCC1" ? inactive

----------
test system: astro; assay: Drug repurposing screens with cells derived from glioblastoma tumor samples (AID 1345199); details: viability, ATP luminescence, 48 h; series mostly up to 45.9 µM; also: nearly all actives have a fitted effect of over 40% in size; also: potency is read from the fitted curve at half-maximal effect
Records with an inconclusive call do not appear. Calls of active or inactive are those of the source. Calls follow the shape of the dose curve; as a rule, active = well fitted inhibition curve with a large enough effect; inconclusive = small, poorly fitted or top-dose-only effect; inactive = flat fitted curve, though single readings scatter.
EXPERIMENTAL_ENDPOINT: Potency

N=C(N)c1ccc(OCCCOc2ccc(C(=N)N)cc2)cc1 = 11.2 µM (active)
CO[C@@H]1[C@@H](O[C@@H]2O[C@H](C)[C@@H](O[C@H]3C[C@@](C)(O)[C@@H](O)[C@H](C)O3)[C@H](N(C)C)[C@H]2O)[C@@H](CC=O)C[C@@H](C)[C@@H](O[C@@H]2CC[C@H](N(C)C)[C@@H](C)O2)/C=C/C=C/C[C@@H](C)OC(=O)C[C@H]1OC(C)=O = inactive
Cc1ccccc1N1CCN(CCc2nnc3n2CCCC3)CC1 = inactive
CC(=O)OCC(=O)Nc1cc(C#N)cc(NC(=O)COC(C)=O)c1Cl = inactive

Attention now turns to another entry.
Which Potency is listed for CN1[C@@H]2CC[C@H]1CC(NC(=O)n1c(=O)[nH]c3ccccc31)C2 (stereo not given in full) ? inactive
